- Test system: colon cancer/HT 29
- Test details: cells
- Type: cell-based
- Run parameters: colon cancer/HT 29; 48 hours with drug; concentration at which 50% of the cells are killed; read-out: LC50 (the source's name)
Outcome measure: CC50
Returns: string containing the numeric result and its unit.

Consider CCCCCC(=O)OC1CC2OCC2(OC(C)=O)C2C(OC(=O)c3ccccc3)C3(O)CC(OC(=O)C(O)C(NC(=O)c4ccccc4)c4ccccc4)C(C)=C(C(OC(C)=O)C(=O)C12C)C3(C)C (stereo not shown) [7-hexanoyl taxol] . Its measured CC50 is 30 µM

----------
- Test system: melanoma/SK-MEL-2
- Test details: cells
- Format: cell-based
- Run parameters: melanoma/SK-MEL-2; 48 hours with drug; read-out: LC50 (the source's name)
Outcome measure: CC50

Documented CC50 of CCCCCC(=O)OC1CC2OCC2(OC(C)=O)C2C(OC(=O)c3ccccc3)C3(O)CC(OC(=O)C(O)C(NC(=O)c4ccccc4)c4ccccc4)C(C)=C(C(OC(C)=O)C(=O)C12C)C3(C)C (stereo not shown) : > 100 µM
